# Target or test system: FLuc-C-HiBiT (Photinus pyralis, UniProt P08659)
# Construct: firefly luciferase with C-terminal HiBiT tag, E. coli expressed
# Sequence (P08659 whole entry, looked up): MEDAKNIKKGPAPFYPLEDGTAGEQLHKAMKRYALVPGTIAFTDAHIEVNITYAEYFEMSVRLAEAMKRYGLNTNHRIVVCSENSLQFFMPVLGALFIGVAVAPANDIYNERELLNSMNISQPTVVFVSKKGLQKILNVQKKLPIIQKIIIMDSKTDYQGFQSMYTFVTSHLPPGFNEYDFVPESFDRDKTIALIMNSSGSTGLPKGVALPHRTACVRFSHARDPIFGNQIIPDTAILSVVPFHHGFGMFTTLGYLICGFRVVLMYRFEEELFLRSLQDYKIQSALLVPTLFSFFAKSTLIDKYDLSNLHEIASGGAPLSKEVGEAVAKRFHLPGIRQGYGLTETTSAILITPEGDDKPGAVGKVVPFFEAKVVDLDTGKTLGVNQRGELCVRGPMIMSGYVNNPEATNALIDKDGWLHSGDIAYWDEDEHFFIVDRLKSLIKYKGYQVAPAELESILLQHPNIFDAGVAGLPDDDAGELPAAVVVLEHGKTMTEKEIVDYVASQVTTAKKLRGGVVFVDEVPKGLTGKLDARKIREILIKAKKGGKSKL
# Assay comment: biochemical
# Conditions: enzyme activity, 10 uM ATP; read-out: IC50 or SDR50 (mM) / FLuc E

Molecule: Cc1cnc(NC(=O)c2ccc3c(c2)OCC(=O)N(C)C3)s1
Value qualifier: =
IC50, mM: 0.0143

Molecule: CN(C)c1cccc(C(=O)NC2CCN(c3cc(-c4ccc(Cl)cc4)n[nH]3)C2)c1 (stereo not drawn)
Value qualifier: =
IC50, mM: 0.0111

Molecule: Cc1c(C(=O)Nc2cccc(-c3nc4ccccc4s3)c2)oc2ccc(F)cc12
Value qualifier: >
IC50, mM: 0.03

Molecule: Oc1cc(-c2nc3ccccc3s2)cc2c1OCCN(Cc1cccn1-c1ncccn1)C2
Value qualifier: >
IC50, mM: 0.03

Molecule: O=C(NCCc1ccccc1)c1ccc2c(c1)nc1n2CCOC1
Value qualifier: =
IC50, mM: 0.00881

Molecule: CCOc1ccccc1C(=O)Nc1cccc(-c2nc3ccccc3s2)c1
Value qualifier: =
IC50, mM: 0.0111

Molecule: O=C(Nc1ccccc1)Nc1ccc2n(c1=O)C[C@H]1C[C@@H]2CN(C(=O)c2ccccc2)C1
Value qualifier: =
IC50, mM: 0.018

Molecule: CC(=O)c1cccc(-c2nc3ccccc3s2)c1
Value qualifier: =
IC50, mM: 0.00989

Molecule: CCCC(=O)Nc1cnc(-c2ccc(C)cc2)nc1
Value qualifier: =
IC50, mM: 0.00351

Molecule: Cn1cc(/C=C2\C(=O)Nc3cccnc32)c2ccccc21
Value qualifier: =
IC50, mM: 0.00989

Molecule: CC(=O)Nc1ccc(NC(=O)c2cc(-c3ccc4c(c3)OCCO4)on2)cc1
Value qualifier: =
IC50, mM: 0.000624

Molecule: CCN1c2cc(C(=O)Nc3ccc4c(c3)OCCO4)ccc2C(=O)N2CCCCC21 (stereo not drawn)
Value qualifier: =
IC50, mM: 0.00989

Molecule: COc1ccc(CCNC(=O)C2CCCN(c3nc4c(C)cc(C)cc4s3)C2)cc1OC (stereo not drawn)
Value qualifier: =
IC50, mM: 0.00556

Molecule: O=C(COc1ccccc1[N+](=O)[O-])Nc1ccc(-c2nc3ccccc3s2)cc1
Value qualifier: >
IC50, mM: 0.03

Molecule: O=C(NCCc1ccccc1F)c1nc2sccn2c1Br
Value qualifier: =
IC50, mM: 0.007

Molecule: Cc1ccc(C2Cn3cnc(C(=O)N4CCC(C(=O)NCc5ccco5)CC4)c3CO2)cc1 (stereo not drawn)
Value qualifier: =
IC50, mM: 0.00881

Molecule: CC1CCCN(C(=O)c2cc3ccc4cccnc4c3[nH]2)C1 (stereo not drawn)
Value qualifier: =
IC50, mM: 0.000556

Molecule: CC1CCC(NC(=O)c2noc(-c3ccccc3F)n2)CC1 (stereo not drawn)
Value qualifier: =
IC50, mM: 0.0124
